Species on record: Homo sapiens
Assay: To identify inhibition of the IFN signalling (Jak-Stat) pathway via expression of an eGFP reporter gene under the control of an IFN-stimulated response element (ISRE) containing MxA promoter.
Assay type: functional
Parameters: scale not given: direction of the effect not stated beside the values
Conditions: 30 µM
Outcome Measure: Percent Effect (%)
Respond with the bare value in %.

Please give the measured Percent Effect for this compound: Cc1nc(CN2CC3(CCN(c4ncc(F)cn4)C3)CC2=O)cs1 (centres undefined)
7.34

What about COc1c(C2CCCN2Cc2csc(C(C)C)n2)c(C)nn1C (centres undefined) ?
37.8

What about CCc1ncc(C(=O)NCCNC(=O)Cc2ccc(F)cc2)s1 ?
-8.05

What about CN(Cc1nc(N)c2ccccc2n1)C1CCCN(c2cccnn2)C1 (centres undefined) ?
-0.131

What about CC(C)c1nccn1-c1cccc(C2CCN(C)CC2)n1 ?
0.127

What about Cn1cc(CN2CCC3(CCCN(Cc4ccccn4)C3)CC2)cn1 ?
-10.8

What about Cc1ccsc1CN(CCN(C)C)Cc1ccccn1 ?
-4.45

What about CCC(=O)N1CCC(c2nnc(Cn3cncn3)n2C2CC2)CC1 ?
0.244

What about Cc1cnn(CC2CCCN2CC(=O)N(C)Cc2ccc(C)o2)c1 (centres undefined) ?
-9.55

What about CN1CC(=O)N(c2cccnc2)CC12CCN(C(=O)C1CCCCC1)C2 (centres undefined) ?
24

What about CC(C)Oc1ncccc1CNC(=O)N1CCC(C(N)=O)C1 (centres undefined) ?
23.8

What about NC(=O)c1ccc(NC(=O)CCN2CCCC(N3CCCC3)C2)cc1 (centres undefined) ?
19.4

What about Cc1ccc2nc(C3CCN(CCO)CC3)nn2c1 ?
23.1

What about CCOc1cccc(CNc2ccccc2C(=O)OC)c1O ?
21.5

What about COc1ccc(C2(CNC(C)c3nnc(C)o3)CCCCC2)cc1 (centres undefined) ?
5.78

What about C[C@H]1C[C@@H]2CCN(C(=O)c3cccn3C)C[C@H]2O1 ?
3.63

What about O=C(C1CCC1)N1CCN(C(=O)c2cnccn2)[C@H]2CS(=O)(=O)C[C@H]21 ?
3.49

What about O=C(CCn1ccc2cc(Br)ccc21)NCc1ccc(C(=O)O)cc1 ?
10.9

What about Cn1cc(CC2CCN(C(=O)NCCc3cccc(O)c3)C2)cn1 (centres undefined) ?
-12

What about Cc1ccc(C(=O)N(C)Cc2cc(Br)cs2)c(=O)[nH]1 ?
0.327

What about CSc1ccc(NC(=O)Nc2ccc3c(c2)N(S(C)(=O)=O)CC3)cc1 ?
30.8

What about COCC(=O)NCc1cc(=O)n2c(n1)CN(Cc1ccsc1)CCC2 ?
-15.7

What about CCCn1ncc(CN2C[C@@H]3CCCN3C[C@@H]2CCSC)c1C ?
8.73

What about COc1ccc(Br)c(C(=O)NCC2CCN(S(=O)(=O)C3CC3)CC2)c1 ?
20.3

---

Molecular target: Arginase-2, mitochondrial (Homo sapiens) (UniProt P78540)
Sequence (P78540 whole entry): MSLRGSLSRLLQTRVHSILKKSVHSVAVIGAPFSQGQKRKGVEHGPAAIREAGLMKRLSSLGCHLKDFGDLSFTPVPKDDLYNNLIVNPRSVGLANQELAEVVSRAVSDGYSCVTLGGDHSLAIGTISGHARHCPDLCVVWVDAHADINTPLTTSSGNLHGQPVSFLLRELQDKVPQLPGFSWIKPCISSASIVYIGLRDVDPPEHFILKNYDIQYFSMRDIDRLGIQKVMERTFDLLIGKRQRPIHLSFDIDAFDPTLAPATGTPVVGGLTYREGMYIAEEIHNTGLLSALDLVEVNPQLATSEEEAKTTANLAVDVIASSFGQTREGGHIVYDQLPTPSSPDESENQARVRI
Experiment: in vitro enzyme assay to detect the production of urea directly proportional to the activity of Arginase II; further: in the data most compounds retested in dose-response had high values
Assay type: functional
Parameters: scale not given: direction of the effect not stated beside the values
Details: 33.3 µM
Outcome Measure: Percent Effect (%)
Respond with the bare value in %.

Please give the measured Percent Effect for this compound: O=C(CN1CCCC1Cn1cccn1)NC1CCOCC1 (configuration not stated)
-2.38

What about Cc1ccc(N2CCCC(N(C)Cc3cc(C)no3)C2)nn1 (configuration not stated) ?
23.4

What about CNC(=O)c1cnc(/C=C/c2cc(OC)cc(OC)c2)s1 ?
0.417

What about COCCOCC(=O)Nc1ccc(C)cc1F ?
0

What about CSC(C)C(=O)NCCCc1cc(N)n(-c2ccccc2)n1 (configuration not stated) ?
-12.3

What about CN(CCN1CCCCC1)C(=O)c1cc(CN2CCOCC2)on1 ?
1.82

What about CN(CCNC(=O)NCc1ccncc1)C1CCCC1 ?
0.401

---

Target: AMP-activated protein kinase, AMPK (Homo sapiens) (UniProt P54646+O43741+P54619+Q9UGJ0+Q9Y478+Q13131+Q9UGI9)
Experiment: AMP-dependent Kinase enzyme assay. An in vitro enzyme assay that detects ADP turnover that is directly proportional to AMPK activity. This uses naive AMPK that is activated during the assay with MK-8722
Format: functional
Parameters: scale not given: direction of the effect not stated beside the values
Conditions: 30 µM
Outcome Measure: Percent Effect (%)
Respond with the bare value in %.

Please give the measured Percent Effect for this compound: COc1cc(C)ccc1OCCC(=O)N1CCCC1Cn1cccn1 (stereo unspecified)
-7.6

What about CN(CCNC(=O)NCc1ccncc1)C1CCCC1 ?
-4.53

What about Cc1ccc(NC2CCN(C(=O)COCC(F)(F)F)CC2)nn1 ?
-2.75

What about O=c1ccc(-c2cccs2)nn1CN1CCCCCC1 ?
-3.16

What about NC(=O)Nc1cccc(Oc2ccccn2)c1 ?
11.3

What about Cn1cc(-c2ncnc3c2CCN(C(=O)N2CCOCC2)CC3)cn1 ?
-3.79

---

Molecular target: Proteasome subunit beta (Trypanosoma cruzi) (UniProt O96673)
Sequence (O96673 as listed by the source): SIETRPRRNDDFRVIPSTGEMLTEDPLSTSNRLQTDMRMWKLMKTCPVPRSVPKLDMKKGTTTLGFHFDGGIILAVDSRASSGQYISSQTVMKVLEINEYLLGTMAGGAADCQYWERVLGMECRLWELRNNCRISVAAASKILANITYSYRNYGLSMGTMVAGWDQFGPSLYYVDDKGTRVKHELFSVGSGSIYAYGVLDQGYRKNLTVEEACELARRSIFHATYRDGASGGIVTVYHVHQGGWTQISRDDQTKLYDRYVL
Assay: Trypanosoma cruzi proteasome chymotrypsin-like activity (TcProtChymo) assay. Further: in the data most compounds retested in dose-response had high values.
Format: functional
Parameters: scale not given: direction of the effect not stated beside the values
Conditions: 9.37 µM
For each entry below, report its Percent Effect value.
Respond with the bare value in %.

Please give the measured Percent Effect for this compound: Cn1cc(C2CCCN2C(=O)CCCOc2ccc(F)cc2F)cn1 (stereo unspecified)
-3.36

What about CC(OCC(F)(F)F)C(=O)Nc1ccc(-n2cncn2)nc1 (stereo unspecified) ?
8.49

What about CCOc1ncccc1C(=O)N(C)Cc1ncc(C)c(OC)c1C ?
12.5

What about CC(NC(=O)CCC(=O)c1cccs1)c1nnc2n1CCCCC2 (stereo unspecified) ?
-5.39

What about O=C(NC1CCCC1)NC1CCC(C(=O)N2CCSCC2)CC1 (stereo unspecified) ?
3.33

What about Cc1ccc(CN2CCC3(C2)C(=O)N(CC(C)C)c2ccccc23)s1 (stereo unspecified) ?
7.02

---

Target: Chromo domain-containing protein 1 (Saccharomyces cerevisiae (strain ATCC 204508 / S288c) (Baker's yeast)) (UniProt P32657)
Sequence (P32657 whole entry, the tested form may be a part): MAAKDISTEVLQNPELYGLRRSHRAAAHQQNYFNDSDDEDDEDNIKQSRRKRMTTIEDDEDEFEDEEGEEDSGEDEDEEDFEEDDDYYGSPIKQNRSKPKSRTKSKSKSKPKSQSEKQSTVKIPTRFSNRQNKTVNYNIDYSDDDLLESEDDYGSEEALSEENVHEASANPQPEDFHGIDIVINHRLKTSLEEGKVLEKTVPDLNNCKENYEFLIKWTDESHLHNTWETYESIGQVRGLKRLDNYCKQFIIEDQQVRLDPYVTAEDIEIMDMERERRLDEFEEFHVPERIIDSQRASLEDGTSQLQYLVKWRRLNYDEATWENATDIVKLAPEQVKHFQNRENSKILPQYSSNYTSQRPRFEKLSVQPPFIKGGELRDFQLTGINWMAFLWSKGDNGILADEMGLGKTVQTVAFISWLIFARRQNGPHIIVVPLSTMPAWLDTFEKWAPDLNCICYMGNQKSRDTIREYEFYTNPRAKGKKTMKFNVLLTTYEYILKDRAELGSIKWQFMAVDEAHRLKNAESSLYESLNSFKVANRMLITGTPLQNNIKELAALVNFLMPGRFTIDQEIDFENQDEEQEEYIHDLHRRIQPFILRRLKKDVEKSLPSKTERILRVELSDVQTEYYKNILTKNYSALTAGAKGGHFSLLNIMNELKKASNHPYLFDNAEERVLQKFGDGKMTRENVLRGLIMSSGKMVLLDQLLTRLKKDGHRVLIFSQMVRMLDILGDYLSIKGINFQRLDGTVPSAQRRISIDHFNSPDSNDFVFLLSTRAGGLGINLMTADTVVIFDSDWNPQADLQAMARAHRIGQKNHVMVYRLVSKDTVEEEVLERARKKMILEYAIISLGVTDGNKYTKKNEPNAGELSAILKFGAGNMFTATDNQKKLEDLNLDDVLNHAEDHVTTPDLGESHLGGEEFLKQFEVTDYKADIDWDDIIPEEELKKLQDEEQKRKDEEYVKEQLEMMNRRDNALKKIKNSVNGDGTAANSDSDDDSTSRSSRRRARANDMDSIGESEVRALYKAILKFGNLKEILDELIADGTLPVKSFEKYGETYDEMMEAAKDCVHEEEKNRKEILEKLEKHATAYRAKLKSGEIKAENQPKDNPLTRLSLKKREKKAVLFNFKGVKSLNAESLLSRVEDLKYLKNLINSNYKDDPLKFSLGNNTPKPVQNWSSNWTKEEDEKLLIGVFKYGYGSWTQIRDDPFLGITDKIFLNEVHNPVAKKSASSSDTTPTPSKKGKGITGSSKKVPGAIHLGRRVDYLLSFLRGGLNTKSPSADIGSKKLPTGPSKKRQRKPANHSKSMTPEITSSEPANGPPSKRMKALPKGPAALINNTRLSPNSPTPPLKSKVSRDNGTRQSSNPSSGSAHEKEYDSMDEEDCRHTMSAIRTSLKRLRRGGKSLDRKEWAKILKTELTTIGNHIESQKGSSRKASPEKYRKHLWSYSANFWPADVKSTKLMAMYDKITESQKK
Assay: ScCHD-1 Enzyme Inhibition Assay; further: in the data most compounds retested in dose-response had high values
Type: functional
Design: scale not given: direction of the effect not stated beside the values
Details: 30 µM
Outcome Measure: Percent Effect (%)
Respond with the bare value in %.

Please give the measured Percent Effect for this compound: Cc1c(C2CCCN(C(=O)C3CC3)C2)n2c(nc1=O)CCC2 (configuration not stated)
-11

What about CCn1c(CN2CCCN(C(=O)OC)CC2)nc2c(F)cccc21 ?
-4.43

What about Cc1nc(N2CCOCC2)nc2c1CN(C(=O)Cc1ccccn1)CC2 ?
0.916

What about Cc1nn(C)c(N2CCOCC2)c1CNCc1ccc(Cl)s1 ?
-8.79

What about Cc1cc(C)cc(N(C)S(=O)(=O)c2cc(C(=O)O)cs2)c1 ?
-4.94

What about CC1CN(CC(=O)Nc2nncs2)CCN1c1nccs1 (configuration not stated) ?
-4.83

What about O=C(Nc1cn[nH]c1)c1ccc(O)nc1 ?
-8.54

What about CC(=O)N1CCN(CC2CCOc3ccccc3C2)CC1 (configuration not stated) ?
-1.42

What about CCCc1nc(N2CCN(CC)CC2)c2c(n1)c(C)nn2CC ?
-5.13

What about COc1ncccc1C(=O)N1CCC(c2nnc(C3CC3)o2)CC1 ?
-9.2

What about CCN1CCOC(CNCc2ccccc2OCc2ccccn2)C1 (configuration not stated) ?
-8.14

What about COCCO[C@@H]1CCN(C(=O)c2ccc(C)o2)[C@@H]1Cc1cnn(C)c1 ?
4.49

---

For each entry below, report its Percent Effect value.
Target: Proteasome subunit beta (Trypanosoma cruzi)
Assay: Trypanosoma cruzi proteasome chymotrypsin-like activity (TcProtChymo) assay. Further: in the data most compounds retested in dose-response had high values.
Format: functional
Set-up: scale not given: direction of the effect not stated beside the values
Conditions: 9.37 µM
Respond with the bare value in %.

Form: Entry = O=C1CC(c2ccc(F)c(F)c2)c2snc(C(=O)O)c2N1 (stereo not given) | System = Proteasome subunit beta (Trypanosoma cruzi) | Percent Effect = ____
2.77

What about Cc1scc(C(=O)N2CCC3(CC(=O)NC3=O)C2)c1-c1ccccc1 (stereo not given) ?
12.2

What about O=C(NC(CO)CO)c1coc(COc2cccc(F)c2)n1 ?
9.19

What about O=C(CCC1CCCC1)NCCn1nc(C2CCNC2)c2cccnc21 (stereo not given) ?
3.26

What about CCc1nc(NS(=O)(=O)c2ccc(C)cc2Cl)no1 ?
-1.57

What about CCN1CCN(S(=O)(=O)c2ncn(C)c2Cl)CC1 ?
21.4

What about CCO[C@@H]1CCN(C(=O)c2ccc[nH]2)[C@@H]1Cc1cnn(C)c1 ?
2.56

What about Cc1cnc2c(S(=O)(=O)NCC3CCN(C4CC4)C3)cccc2c1 (stereo not given) ?
-7.53

What about O=C(NCc1csc(Br)c1)c1ccc(=O)[nH]n1 ?
6.86

What about O=C(Cc1ccccn1)N1CCC2(CC1)CC(Oc1ccccn1)CO2 (stereo not given) ?
12.2

What about CN(C)C(=O)CNC(=O)CCn1ncc2c(Cl)cccc21 ?
14.1

What about CC(C)(CNC(=O)CCOc1cccc(F)c1)C(N)=O ?
10.5

What about CC1c2ncc(COc3cccnc3)n2CCN1C(=O)C1=CCCC1 (stereo not given) ?
9.43

What about COc1ccc(CNC(=O)NC2CCN(CC(F)F)CC2)cc1C ?
2.15

What about c1ccc2cc(OCCN3CCOC(Cn4cncn4)C3)ccc2c1 (stereo not given) ?
10.3

What about COCCN1CCN(C(C)C(=O)Nc2ccnn2C(C)C)CC1 (stereo not given) ?
7.35

What about CN1C(=O)CC(c2cnn(C)c2)C12CCN(C(=O)C1CC=CC1)CC2 (stereo not given) ?
7.2

What about CCN(c1ccc(C(=O)NCCCN2CCOCC2)cc1)S(=O)(=O)CC ?
15.8

What about Cc1cnc(CNc2c(F)cccc2-n2cccn2)o1 ?
13.7

What about COc1ncccc1CN1CCn2c(Cn3cncn3)cnc2C1 ?
8.19

What about CCN(CC)C(=O)CCc1c(C)nc2cc(O)nn2c1C ?
24.1

What about CC1CN(CC(=O)Nc2nncs2)CCN1c1nccs1 (stereo not given) ?
16.5

What about CC(=O)N1CC[C@H]2OCC[C@@]2(C(=O)NCc2ccco2)C1 ?
11.3

What about CN(CC(=O)N1CCCC1Cn1cccn1)C1CC1 (stereo not given) ?
-0.0819

What about NC(=O)COc1ccc(CNCc2ccc(F)cc2F)cc1 ?
8.42
